Assayed target: Cytochrome P450 3A4 (Homo sapiens);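 further: CYP3A4 tested as one member of a cytochrome P450 panel screen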
Sequence (P08684 whole entry): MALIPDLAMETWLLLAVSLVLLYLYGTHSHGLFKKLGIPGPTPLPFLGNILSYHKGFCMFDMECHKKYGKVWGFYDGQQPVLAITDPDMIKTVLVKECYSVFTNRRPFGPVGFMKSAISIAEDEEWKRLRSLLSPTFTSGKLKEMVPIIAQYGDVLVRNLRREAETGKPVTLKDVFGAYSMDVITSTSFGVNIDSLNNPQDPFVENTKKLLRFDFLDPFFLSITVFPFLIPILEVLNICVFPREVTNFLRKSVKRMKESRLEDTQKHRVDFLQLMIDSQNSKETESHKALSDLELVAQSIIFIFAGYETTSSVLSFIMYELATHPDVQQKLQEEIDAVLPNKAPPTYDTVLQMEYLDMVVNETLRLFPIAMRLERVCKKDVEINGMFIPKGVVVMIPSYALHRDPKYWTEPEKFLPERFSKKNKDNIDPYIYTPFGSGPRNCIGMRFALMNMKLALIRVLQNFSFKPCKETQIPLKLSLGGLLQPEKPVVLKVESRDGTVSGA
Reported AC50 values follow for various compounds

COc1ccccc1CNCCCCCCNCCCCCCCCNCCCCCCNCc1ccccc1OC: 10 µM (inconclusive)

### Prompt Find the recorded AC50 belonging to CCNc1ncc2nc(CCc3ccccc3)c(=O)n(C)c2n1 and report it.
### Response 31.6 µM (inconclusive)

### Prompt Now try Cc1cc(-c2cc(-c3ccc(Cl)cc3)nc(N)c2C#N)co1 .
### Response 17.8 µM (inconclusive)

### Prompt Now try COc1cc(OC)c(OC)cc1/C=N\CC1(c2ccccc2)CCCC1 .
### Response 25.1 µM (inconclusive)

### Prompt Now try CN(Cc1ccco1)c1ncnc2ccc(-c3cccc(C#N)c3)cc12 .
### Response 31.6 µM (inconclusive)
